Origin of measurements: ChEMBL document CHEMBL1136811

Please go through the items and note down their pEC50.
# study system: Melanocortin receptor 1 (Xenopus laevis)
# assay protocol: Agonistic activity towards Melanocortin 1 receptor in the Xenopus frog skin assay
# reply with the number alone; pEC50 is -log10 of concentration in mol/L

Give its pEC50 value. Item: "CC(C)[C@H](NC(=O)[C@@H]1CCC(=O)NCC(=O)N[C@@H](Cc2cnc[nH]2)C(=O)N[C@@H](Cc2ccccc2)C(=O)N[C@@H](CCCNC(=N)N)C(=O)N[C@@H](Cc2c[nH]c3ccccc23)C(=O)N1)C(=O)N[C@H](C(=O)NCC(N)=O)C(C)C"
5.28

Give its pEC50 value. Item: "CC(C)[C@H](NC(=O)[C@@H]1CCC(=O)NCC(=O)N[C@@H](Cc2c[nH]cn2)C(=O)N[C@H](Cc2ccc3ccccc3c2)C(=O)N[C@@H](CCCN=C(N)N)C(=O)N[C@@H](Cc2c[nH]c3ccccc23)C(=O)N1)C(=O)N[C@H](C(=O)NCC(N)=O)C(C)C"
7.22

Give its pEC50 value. Item: "CC(C)[C@H](NC(=O)[C@@H]1CCC(=O)NCCCC(=O)N[C@@H](Cc2c[nH]cn2)C(=O)N[C@H](Cc2ccccc2)C(=O)N[C@@H](CCCN=C(N)N)C(=O)N[C@@H](Cc2c[nH]c3ccccc23)C(=O)N1)C(=O)N[C@H](C(=O)NCC(N)=O)C(C)C"
6.50

Give its pEC50 value. Item: "CC(C)[C@H](NC(=O)[C@@H]1CCC(=O)NCC(=O)N[C@@H](Cc2c[nH]cn2)C(=O)N[C@H](Cc2ccccc2)C(=O)N[C@@H](CCCN=C(N)N)C(=O)N[C@@H](Cc2c[nH]c3ccccc23)C(=O)N1)C(=O)N[C@H](C(=O)NCC(N)=O)C(C)C"
6.29

Give its pEC50 value. Item: "CC(C)[C@H](NC(=O)[C@@H]1CCC(=O)N[C@@H](Cc2c[nH]cn2)C(=O)N[C@H](Cc2ccccc2)C(=O)N[C@@H](CCCN=C(N)N)C(=O)N[C@@H](Cc2c[nH]c3ccccc23)C(=O)N1)C(=O)N[C@H](C(=O)NCC(N)=O)C(C)C"
6.08

Give its pEC50 value. Item: "CC(C)[C@H](NC(=O)[C@@H]1CCC(=O)NCCC(=O)N[C@@H](Cc2c[nH]cn2)C(=O)N[C@H](Cc2ccc3ccccc3c2)C(=O)N[C@@H](CCCN=C(N)N)C(=O)N[C@@H](Cc2c[nH]c3ccccc23)C(=O)N1)C(=O)N[C@H](C(=O)NCC(N)=O)C(C)C"
8.70
